# TARGET_DESC: Alpha-2A adrenergic receptor (Homo sapiens); also: assay procedure not described here
# Sequence (P08913 whole entry): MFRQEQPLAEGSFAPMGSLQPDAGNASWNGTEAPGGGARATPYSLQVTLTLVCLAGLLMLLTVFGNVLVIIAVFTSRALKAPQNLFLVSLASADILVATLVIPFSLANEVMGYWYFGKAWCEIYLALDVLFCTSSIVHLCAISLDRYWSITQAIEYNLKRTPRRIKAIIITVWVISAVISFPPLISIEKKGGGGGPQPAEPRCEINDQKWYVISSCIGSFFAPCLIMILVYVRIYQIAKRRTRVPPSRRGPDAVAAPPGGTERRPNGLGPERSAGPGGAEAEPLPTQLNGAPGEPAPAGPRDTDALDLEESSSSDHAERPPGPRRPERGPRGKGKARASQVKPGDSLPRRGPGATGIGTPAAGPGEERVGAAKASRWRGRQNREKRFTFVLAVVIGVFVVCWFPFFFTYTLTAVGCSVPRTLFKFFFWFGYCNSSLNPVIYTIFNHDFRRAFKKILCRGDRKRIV
# Assay type: functional, cell-based
Recorded AC50 values for a group of compounds are listed next.
MEASURED_PARAMETER: AC50

INSERT INTO measurements (compound, result) VALUES
  ('CC(C)(C)NCC(O)c1cc(Cl)c(N)c(Cl)c1 (stereo not given)', '> 30 µM'),
  ('O=C1CN=C(c2ccccc2)c2cc(Cl)ccc2N1', '> 10 µM'),
  ('Oc1c(I)cc(Cl)c2cccnc12', '> 30 µM'),
  ('Cc1ccc2c(-c3ccccc3)nc(=O)n(C(C)C)c2c1', '> 30 µM'),
  ('CC(C)CC(N(C)C)C1(c2ccc(Cl)cc2)CCC1 (stereo not given)', '> 30 µM'),
  ('COc1ccnc(C[S+]([O-])c2nc3ccc(OC(F)F)cc3[nH]2)c1OC (stereo not given)', '> 10 µM'),
  ('[H]/N=C(\N/C(=N/[H])NCCCCCCNC(=N)NC(=N)Nc1ccc(Cl)cc1)Nc1ccc(Cl)cc1', '> 30 µM'),
  ('CC[C@H]1OC(=O)[C@H](C)[C@@H](O[C@H]2C[C@@](C)(OC)[C@@H](O)[C@H](C)O2)[C@H](C)[C@@H](O[C@@H]2O[C@H](C)C[C@H](N(C)C)[C@H]2O)[C@](C)(O)C[C@@H](C)/C(=N\OCOCCOC)[C@H](C)[C@@H](O)[C@]1(C)O', '> 30 µM'),
  ('CC(CCc1ccccc1)NC(C)C(O)c1ccc(O)cc1 (stereo not given)', '> 10 µM'),
  ('NC(=O)c1ncn([C@@H]2O[C@H](CO)[C@@H](O)[C@H]2O)n1', '> 10 µM'),
  ('CN1c2ccccc2C(NCCCCCCC(=O)O)c2ccc(Cl)cc2S1(=O)=O (stereo not given)', '> 30 µM'),
  ('Nc1nc2c(c(=O)[nH]1)N(C=O)C(CNc1ccc(C(=O)N[C@@H](CCC(=O)O)C(=O)O)cc1)CN2 (stereo not given in full)', '> 30 µM'),
  ('N=C(N)NCCCCCCC(=O)NC(O)C(=O)NCCCCNCCCN (stereo not given)', '> 30 µM'),
  ('CCN(CC)C(=O)C1(c2ccccc2)CC1CN (stereo not given)', '> 30 µM'),
  ('CC1(C)O[C@@H]2[C@@H](CO[C@@]3(COS(N)(=O)=O)OC(C)(C)O[C@@H]23)O1 [TOPIRAMATE]', '> 10 µM');
